system: Escherichia coli TOP10; experiment: shrunken log2 fold change of peptide-encoding DNA abundance (4.5 h post-induction vs induction); higher = less antimicrobial activity (less host growth inhibition); settings: time post-induction: 4.5 h; library: site-saturation at positions 5, 18, 19, 20;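 note: peptides expressed intracellularly from a pBAD plasmid library in pooled LB shake-flask culture, induced with 0.3% L-arabinose, DNA abundance read by NGS, three biological replicates, DESeq2 with apeglm shrinkage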
The threshold is inclusive: shrunken log2 fold change of exactly -0.1 counts as True; values below receive False.

Quick check, shrunken log2 fold change >= -0.1? RRIRKRPPRLPRPRPRPDSAPRP True

Reported shrunken log2 fold change at or above -0.1? RRIRLRPPRLPRPRPRPKQPPRP True

Given RRIRPRPPRLPRPRPRPTHIPRP , state whether its shrunken log2 fold change is at least -0.1. True

I'd appreciate it if you could say whether RRIRERPPRLPRPRPRPEIWPRP has shrunken log2 fold change at least equal to -0.1. True

Reported shrunken log2 fold change reaches at least -0.1 for RRIRKRPPRLPRPRPRPQYLPRP ? True

Hello, I need to know if RRIRHRPPRLPRPRPRPFYQPRP has measured shrunken log2 fold change not below -0.1. Thanks! False

// inclusive: shrunken log2 fold change at least -0.1? input: RRIRVRPPRLPRPRPRPRMVPRP True

Determine whether measured shrunken log2 fold change meets or exceeds -0.1 for RRIRSRPPRLPRPRPRPPDIPRP False

Is the recorded value of shrunken log2 fold change equal to or greater than -0.1 for this sequence? RRIRFRPPRLPRPRPRPSGDPRP False

Is it the case that RRIRNRPPRLPRPRPRPWYAPRP has shrunken log2 fold change reaching or exceeding -0.1? False

Does shrunken log2 fold change meet or surpass -0.1 for RRIRYRPPRLPRPRPRPGAAPRP ? True

Hi, just wondering whether RRIRPRPPRLPRPRPRPTDEPRP shows shrunken log2 fold change of -0.1 or higher. False

Quick check, shrunken log2 fold change >= -0.1? RRIRYRPPRLPRPRPRPHWHPRP False
